target_of_assay: human ghrelin receptor (human, UniProt Q92847 1-366)
Sequence (Q92847 whole entry): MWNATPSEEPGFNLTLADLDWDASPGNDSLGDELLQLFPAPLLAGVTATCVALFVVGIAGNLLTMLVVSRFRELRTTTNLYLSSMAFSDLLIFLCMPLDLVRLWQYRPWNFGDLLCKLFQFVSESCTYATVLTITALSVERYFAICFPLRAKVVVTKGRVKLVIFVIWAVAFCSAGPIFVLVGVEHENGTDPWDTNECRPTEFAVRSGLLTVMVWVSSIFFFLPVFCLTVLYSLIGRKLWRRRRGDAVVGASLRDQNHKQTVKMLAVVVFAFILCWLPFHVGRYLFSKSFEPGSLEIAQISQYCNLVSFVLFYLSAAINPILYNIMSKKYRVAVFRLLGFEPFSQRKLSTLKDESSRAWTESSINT
protocol: cell-based or functional assay
Where no end group is shown, it is not given here. [ ]: non-standard residue; d: D form.
parameter: Emax [Δ %], inverse agonistic activity, inositol trisphosphate turnover assay

binder: K[dW]F[dW]LL-NH2 (N-terminus assumed; SMILES CC(C)C[C@H](NC(=O)[C@H](CC(C)C)NC(=O)[C@@H](Cc1c[nH]c2ccccc12)NC(=O)[C@H](Cc1ccccc1)NC(=O)[C@@H](Cc1c[nH]c2ccccc12)NC(=O)[C@@H](N)CCCCN)C(N)=O) [KwFwLL-NH2]
result: 37 Δ %

binder: KXFXLL (1-naphthyl-D-alanine (D-1-Nal) at 2; D-Trp at 4; C-terminal amide) [K-(D-1-Nal)-FwLL-NH2]
result: 64 Δ %

binder: KXFXLL (4,4'-biphenyl-D-alanine (D-Bip) at 2; D-Trp at 4; C-terminal amide) [K-(D-Bip)-FwLL-NH2]
result: 82 Δ %

binder: KXFXLL (2-naphthyl-D-alanine (D-2-Nal) at 2; D-Trp at 4; C-terminal amide) [K-(D-2-Nal)-FwLL-NH2]
result: 66 Δ %

binder: KXFXLL (3,3-diphenyl-D-alanine (D-Dip) at 2; D-Trp at 4; C-terminal amide) [K-(D-Dip)-FwLL-NH2]
result: 87 Δ %
